- Experiment description: In vitro inhibition of PAF-induced platelet aggregation in male rabbits
Cut-off 100 nM on IC50: below means Condition met, at or above means Condition not met.

1. Cc1ncccc1C(C#N)N1CCN(C(=O)C[S+]([O-])C(c2ccccc2)c2ccccc2)CC1 (stereo unspecified)	Condition met
2. Cc1ncccc1C(C#N)N1CCN(C(=O)CC(O)(c2ccc(F)cc2)c2ccc(F)cc2)CC1 (stereo unspecified)	Condition met
3. Cc1ncccc1C(CO)N1CCN(C(=O)CC(c2ccccc2)c2ccccc2)CC1 (stereo unspecified)	Condition not met
4. Cc1ncccc1C(C#N)N1CCN(C(=O)CC(C)c2ccccc2)CC1 (stereo unspecified)	Condition met
5. Cc1ncccc1C(C#N)N1CCN(C(=O)/C=C(/c2ccccc2)C(F)(F)F)CC1 (stereo unspecified)	Condition not met
6. Cc1ncccc1C(C#N)N1CCN(C(=O)CC(c2ccccc2)N2CCCS2(=O)=O)CC1 (stereo unspecified)	Condition not met
